Cited source: PubChem BioAssay (NCATS)

Tested on: PC26
Experiment: qHTS profiling for inhibitors of Plasmodium falciparum proliferation (AID 504749); note: nearly all actives have a fitted effect of over 60% in size
Details: P. falciparum in erythrocytes, SYBR Green DNA, 72 h; series mostly up to 28.7 µM
Results filed as inconclusive are left out. The source made the active and inactive calls. Calls come from the whole dose curve; as a rule, active = well fitted inhibition curve with a large enough effect; inconclusive = small, poorly fitted or top-dose-only effect; inactive = flat fitted curve, though single readings scatter.
Answer with one of the outcomes Yes for active, No for inactive

Exercise: State the result this test recorded for COC1=C(OC)C(=O)C(C/C=C(\C)CC/C=C(\C)CC/C=C(\C)CC/C=C(\C)CC/C=C(\C)CC/C=C(\C)CC/C=C(\C)CC/C=C(\C)CC/C=C(\C)CCC=C(C)C)=C(C)C1=O .
Key: No

Exercise: State the result this test recorded for C=CCCCCCCCCC(=O)OC .
Key: No

Exercise: State the result this test recorded for CN(Cc1ccccc1)Cc1ccccc1 .
Key: No

Exercise: State the result this test recorded for CC(=O)Nc1ccc(OC(=O)c2ccccc2O)cc1 .
Key: No

Exercise: State the result this test recorded for CC(C)(Oc1ccc(C2CCCc3ccccc32)cc1)C(=O)O (configuration not stated) .
Key: No

Exercise: State the result this test recorded for CN1C(=O)OC(C)(C)C1=O .
Key: No

Exercise: State the result this test recorded for COc1ccc2c(c1)OC(C)(C)C(c1ccccc1)C2c1ccc(OCCN2CCCC2)cc1 (configuration not stated) .
Key: Yes

###

System: CP297
Test: qHTS profiling for inhibitors of Plasmodium falciparum proliferation (AID 504749); note: nearly all actives have a fitted effect of over 60% in size
Settings: P. falciparum in erythrocytes, SYBR Green DNA, 72 h; series mostly up to 28.7 µM
Records with an inconclusive call do not appear. The source made the active and inactive calls. The call rests on the fitted dose curve; in most records, active means well fitted inhibition curve with a large enough effect; inconclusive means small, poorly fitted or top-dose-only effect; inactive means flat fitted curve, though single readings scatter.
Answer with one of the outcomes active, inactive

Exercise: State the result this test recorded for Nc1nc(=O)n([C@@H]2CS[C@H](CO)O2)cc1F .
Key: inactive

Exercise: State the result this test recorded for CCC(C(=O)NC(N)=O)c1ccccc1 (centres undefined) .
Key: inactive

Exercise: State the result this test recorded for Cn1c(O)c(N=NC(N)=S)c2ccccc21 .
Key: inactive

Exercise: State the result this test recorded for NC(=O)Oc1ccc(Cc2ccccc2)cc1 .
Key: inactive

Exercise: State the result this test recorded for Cc1c(Cl)cccc1Nc1ncccc1C(=O)O .
Key: inactive

Exercise: State the result this test recorded for CC1=C(/C=C/C(C)=C/C=C/C(C)=C/C(=O)Oc2c(C)c(C)c3c(c2C)CC[C@@](C)(CCC[C@H](C)CCC[C@H](C)CCCC(C)C)O3)C(C)(C)CCC1 .
Key: inactive

Exercise: State the result this test recorded for NCC[C@H](O)C(=O)N[C@@H]1C[C@H](N)[C@@H](O[C@H]2O[C@H](CN)CC[C@H]2N)[C@H](O)[C@H]1O[C@H]1O[C@H](CO)[C@@H](O)[C@H](N)[C@H]1O .
Key: inactive

Exercise: State the result this test recorded for C[C@H](CCC(=O)O)[C@H]1CC[C@H]2[C@@H]3CC[C@@H]4C[C@H](O)CC[C@]4(C)[C@H]3C[C@H](O)[C@]12C .
Key: inactive

Exercise: State the result this test recorded for O=C(O)COc1ccccc1/C=N/NC(=O)c1ccncc1 .
Key: inactive

Exercise: State the result this test recorded for C[C@H]1O[C@@H](O[C@H]2[C@@H](O)C[C@H](O[C@H]3[C@@H](O)C[C@H](O[C@H]4CC[C@@]5(C)[C@H](CC[C@@H]6[C@@H]5C[C@@H](O)[C@]5(C)[C@@H](C7=CC(=O)OC7)CC[C@]65O)C4)O[C@@H]3C)O[C@@H]2C)C[C@H](O)[C@@H]1O .
Key: inactive

Exercise: State the result this test recorded for Cc1c(C)c2c(c(C)c1OC(=O)CCC(=O)O)CC[C@@](C)(CCC[C@H](C)CCC[C@H](C)CCCC(C)C)O2 .
Key: inactive

Exercise: State the result this test recorded for O=C(NNCNNC(=O)c1ccncc1)c1ccncc1 .
Key: inactive

Exercise: State the result this test recorded for CC(C)Cc1ccc([C@@H](C)C(=O)NS(C)(=O)=O)cc1 .
Key: inactive

Exercise: State the result this test recorded for CC(CC=O)CCCC(C)(C)O (centres undefined) .
Key: inactive

Exercise: State the result this test recorded for CCCC(=O)O .
Key: inactive

Exercise: State the result this test recorded for CC(C)(C)c1ccc2c(S(=O)(=O)O)c(C(C)(C)C)ccc2c1 .
Key: inactive

Exercise: State the result this test recorded for OC[C@H]1O[C@@H]2O[C@H]3[C@H](O)[C@@H](O)[C@@H](O[C@H]4[C@H](O)[C@@H](O)[C@@H](O[C@H]5[C@H](O)[C@@H](O)[C@@H](O[C@H]6[C@H](O)[C@@H](O)[C@@H](O[C@H]7[C@H](O)[C@@H](O)[C@@H](O[C@H]1[C@H](O)[C@H]2O)O[C@@H]7CO)O[C@@H]6CO)O[C@@H]5CO)O[C@@H]4CO)O[C@@H]3CO .
Key: inactive

Exercise: State the result this test recorded for NC(=S)N=Nc1ccc(NN=C(N)N)cc1 .
Key: active

Exercise: State the result this test recorded for CN1CCc2c(c3ccccc3n2Cc2ccccc2)C1 .
Key: inactive
